- ASSAY NOTES: qHTS for compounds that reverse cellular toxicity of Amyloid beta (A-beta) peptide in yeast: LOPAC Validation Assay (AID 720559)
- TEST CONTEXT: yeast expressing A-beta; rescue of growth toxicity; series mostly up to 46.1 µM
Activity calls are given as the source filed them. Calls follow the shape of the dose curve; as a rule, active = well fitted curve in the direction sought with a large enough effect; inconclusive = small, poorly fitted or top-dose-only effect, or another doubt; inactive = no such curve, though single readings can be large or run the other way.
MEASUREMENT NAME: outcome

[[record]]
item_smiles = "O=C1NC(=O)/C(=C/c2ccc3nccnc3c2)S1"
result = "inactive"

[[record]]
item_smiles = "C=C[C@H]1CN2CC[C@@H]1C[C@@H]2[C@@H](O)c1ccnc2ccc(OC)cc12"
result = "inactive"

[[record]]
item_smiles = "O=C(O)CC[C@@H](C(=O)O)N1C(=O)c2ccccc2C1=O"
result = "inactive"

